System: Staphylococcus epidermitis
MEASUREMENT_DESCRIPTION: Bacterial growth inhibition screen in LB media (absorbance 595 nm), percent inhibition
REPORTED_CONDITIONS: S. epidermitis; concentration screened 10 uM
READOUT_LABEL: % Inhibition

Fill in the blank: the reported % Inhibition of c1ccc(C(c2ccccc2)(c2ccccc2)c2ccc3[nH]c(CCCC[n+]4ccc5ccccc5c4)cc3c2)cc1 is ____.
94.92%

Field entry: c1ccc(-c2ccc3[nH]c(CCCCCC[n+]4ccc5ccccc5c4)cc3c2)cc1
5.99%

Field entry: c1ccc(C(c2ccccc2)(c2ccccc2)c2ccc3[nH]c(CCC[n+]4cccc5ccccc54)cc3c2)cc1
5.85%

Field entry: CC(=O)c1ccc2[nH]c(CCCCCC[n+]3ccc4ccccc4c3)cc2c1
2.09%

Field entry: Fc1cc(F)c2[nH]c(CCCCCC[n+]3cccc4ccccc43)cc2c1
15.74%

Field entry: O=C([O-])c1ccc[n+](CCCn2c(C(=O)O)cc3ccccc32)c1
46.32%

Field entry: CC(=O)c1ccc2[nH]c(CCCCCC[n+]3cccc4ccccc43)cc2c1
3.69%

Field entry: c1ccc(C(c2ccccc2)(c2ccccc2)c2ccc3[nH]c(CCCCCCC[n+]4ccc5ccccc5c4)cc3c2)cc1
60.18%

Field entry: O=C(OCCCCCCCc1cc2cc(Oc3ccccc3)ccc2[nH]1)c1ccncc1
3.61%

Field entry: O=[N+]([O-])c1ccc2[nH]c(CCCCCCC[n+]3ccc4ccccc4c3)cc2c1
4.40%

Field entry: CC(C)c1ccc2[nH]c(CCCCCCCOC(=O)c3cccc(N(C)C)c3)cc2c1
7.77%

Field entry: O=C(OCCCCCCCCc1cc2cc(Oc3ccccc3)ccc2[nH]1)c1cccnc1 [Compound 662]
3.27%

Field entry: O=C(OCCCCCCCCc1cc2cc(Oc3ccccc3)ccc2[nH]1)c1ccncc1
3.88%

Field entry: COC(=O)C=Cc1cn(CCCCCCC[n+]2cccc(C(=O)OC)c2)c2ccccc12
46.12%

Field entry: Fc1cc(F)c2[nH]c(CCCC[n+]3cccc4ccccc43)cc2c1
2.44%

Field entry: O=[N+]([O-])c1cc([N+](=O)[O-])c2[nH]c(CCCC[n+]3cccc4ccccc43)cc2c1
1.95%

Field entry: CC(=O)c1ccc2[nH]c(CCCCCCCCOC(=O)c3cccnc3)cc2c1
7.70%

Field entry: O=C(OCCCCc1cc2cc(C(=O)c3ccccc3)ccc2[nH]1)c1cccnc1
14.37%

Field entry: c1ccc(-c2ccc3[nH]c(CCCCC[n+]4ccccc4)cc3c2)cc1
6.27%

Field entry: Cc1ccc2[nH]c(CCCCC[n+]3ccccc3)cc2c1
87.47%

Field entry: O=C(OCCCCCCCc1cc2cc(Oc3ccccc3)ccc2[nH]1)c1ccccc1-c1ccccc1
7.97%

Field entry: COc1ccc2c(ccn2CCCCCCCCOC(=O)c2cc3ccccc3[n+](C)c2)c1
97.67%

Field entry: CN(C)c1ccc(C(=O)OCCCCCCCc2cc3cc(C(F)(F)F)ccc3[nH]2)cc1
33.51%

Field entry: CN(C)c1cccc(C(=O)OCCCCCCCc2cc3cc(Oc4ccccc4)ccc3[nH]2)c1
5.59%
